subject_of_test: T1, APLF FHA domain (forkhead-associated domain of aprataxin and PNKP-like factor) (human, UniProt Q8IW19 1-105)
T1 sequence: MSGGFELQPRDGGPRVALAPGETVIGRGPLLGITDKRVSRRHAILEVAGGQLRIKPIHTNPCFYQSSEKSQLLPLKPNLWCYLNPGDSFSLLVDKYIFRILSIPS
procedure_details: NMR titration; 2D 1H,15N-HSQC of 0.1 mM U-[15N] APLF-FHA as a function of phosphopeptide concentration (0–800 μM); 25 mM HEPES, 25 mM MES, 150 mM NaCl, 1 mM EDTA, pH 7.4; 35°C; lineshape simulation (two-site exchange) for Kd and τB of the 18-residue peptide
cond: both partners purified
Square brackets hold non-standard residues; d marks the D form. Ends that are not written are not given here. pT = C[C@@H](OP(=O)(O)O)[C@H](N)C(=O)O; pS = N[C@@H](COP(=O)(O)O)C(=O)O
endpoint: Kd

Entry DPYAG[pS][pT]DENTDSEEHQE [XRCC1_(pSpT-18) diphosphopeptide, unlabelled (NMR studies)] — recorded Kd = 4 µM
